Catalogue of hERG current change (%, negative = inhibition) at 10uM values
- Experimental Target: human ether-à-go-go-related gene (hERG) potassium channel (human);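 note: peak tail current of the secondary pulse compared with the same well before compound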
- Assay Explanation: primary screen, population patch clamp on CHO cells stably expressing hERG; higher = less effect of the substance
Screen size: about 310,000 compounds; about 14,000 (4.5%) showed an effect of 50% or more. Effects have a minus sign here. The entries come from a sample that favours strong results as a whole.
Reply with just the number (in %).

[
  {
    "Molecule": "C=C(c1ccccc1O)n1ccnc1",
    "Experimental Target": "human ether-à-go-go-related gene (hERG) potassium channel (human)",
    "Reported": 27.8
  }
]

// hERG current change (%, negative = inhibition) at 10uM lookup, molecule = `Cc1ccc(S(=O)(=O)N2CCC(C)CC2)c([N+](=O)[O-])c1` , result: -12.9

// hERG current change (%, negative = inhibition) at 10uM lookup, molecule = COc1ccc(-c2nn(-c3ccccc3)cc2C2CC(c3cccs3)=NN2C(=O)CCCC(=O)O)cc1 (centres unmarked) , result: 17.9

// hERG current change (%, negative = inhibition) at 10uM lookup, molecule = CCOC(=O)N1CCN(S(=O)(=O)N2CCCC(C(=O)NCCCN3CCCCC3)C2)CC1 (centres unmarked) , result: 10

// hERG current change (%, negative = inhibition) at 10uM lookup, molecule = `CCN(CC)S(=O)(=O)c1ccc(O)c(C(=O)OCC(=O)N(C)Cc2ccccc2)c1` , result: -55.4

====

- Experimental Target: human ether-à-go-go-related gene (hERG) potassium channel (human, UniProt Q12809);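 note: peak tail current of the secondary pulse compared with the same well before compound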
- Sequence (Q12809 whole entry, looked up): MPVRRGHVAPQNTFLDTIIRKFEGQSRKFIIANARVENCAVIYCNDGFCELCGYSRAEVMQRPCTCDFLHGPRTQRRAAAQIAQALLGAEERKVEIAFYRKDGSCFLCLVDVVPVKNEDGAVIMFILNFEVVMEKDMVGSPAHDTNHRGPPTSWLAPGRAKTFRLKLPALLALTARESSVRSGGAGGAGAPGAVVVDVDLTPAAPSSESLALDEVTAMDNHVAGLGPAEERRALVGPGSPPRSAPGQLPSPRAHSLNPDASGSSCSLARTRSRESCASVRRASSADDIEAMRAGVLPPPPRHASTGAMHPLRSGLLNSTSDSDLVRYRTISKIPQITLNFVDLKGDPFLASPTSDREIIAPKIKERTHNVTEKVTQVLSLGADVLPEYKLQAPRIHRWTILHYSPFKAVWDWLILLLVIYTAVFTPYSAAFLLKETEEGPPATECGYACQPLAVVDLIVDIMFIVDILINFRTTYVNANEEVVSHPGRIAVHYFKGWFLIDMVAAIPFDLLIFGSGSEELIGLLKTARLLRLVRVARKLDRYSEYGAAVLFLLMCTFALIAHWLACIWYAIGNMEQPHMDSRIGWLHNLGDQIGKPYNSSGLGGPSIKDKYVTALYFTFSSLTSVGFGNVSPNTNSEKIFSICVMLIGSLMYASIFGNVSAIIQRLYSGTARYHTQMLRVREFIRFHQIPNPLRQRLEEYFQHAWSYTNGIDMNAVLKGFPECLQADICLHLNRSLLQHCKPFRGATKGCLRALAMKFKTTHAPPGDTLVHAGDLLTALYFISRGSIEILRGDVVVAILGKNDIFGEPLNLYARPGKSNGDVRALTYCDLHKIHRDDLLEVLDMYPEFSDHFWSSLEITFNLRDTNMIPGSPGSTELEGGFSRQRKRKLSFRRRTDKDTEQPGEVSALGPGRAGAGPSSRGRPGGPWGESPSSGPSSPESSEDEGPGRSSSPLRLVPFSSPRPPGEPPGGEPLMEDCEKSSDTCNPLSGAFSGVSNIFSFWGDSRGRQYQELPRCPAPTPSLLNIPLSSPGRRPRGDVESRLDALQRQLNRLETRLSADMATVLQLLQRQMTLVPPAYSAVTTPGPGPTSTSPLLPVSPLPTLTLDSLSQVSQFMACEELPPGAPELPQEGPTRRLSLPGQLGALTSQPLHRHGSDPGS
- Assay Explanation: primary screen, population patch clamp on CHO cells stably expressing hERG; higher = less effect of the substance
In all, about 310,000 compounds went through this assay and about 14,000 (4.5%) showed an effect of 50% or more. Effects have a minus sign here. Shown is part of a subset that was picked to be rich in strong results.
Metric: hERG current change (%, negative = inhibition) at 10uM (%)
Reply with just the number (in %).

[
  {
    "Compound": "CCn1cc(CN2CCC(n3nccc3NC(=O)C3CCCC3)CC2)c(C)n1",
    "U": "%",
    "Reported": -12.4
  }
]

Short answer on human ether-à-go-go-related gene (hERG) potassium channel (human, UniProt Q12809) for COc1cc(C)c(CN2CCC(n3nccc3NC(=O)C3CCOC3)CC2)cc1C (centres unmarked) , hERG current change (%, negative = inhibition) at 10uM: -18.2

Short answer on human ether-à-go-go-related gene (hERG) potassium channel (human, UniProt Q12809) for `O=C(Nc1ccnn1C1CCN(Cc2ccccc2F)CC1)C1CCCC1` , hERG current change (%, negative = inhibition) at 10uM: -45.4

Short answer on human ether-à-go-go-related gene (hERG) potassium channel (human, UniProt Q12809) for `COc1ccc(C(=O)N2CCC(n3nccc3NC(=O)C3CC3)CC2)c(OC)c1OC` , hERG current change (%, negative = inhibition) at 10uM: 24.7

Short answer on human ether-à-go-go-related gene (hERG) potassium channel (human, UniProt Q12809) for `COc1ccc(CN2CCC(n3nccc3NC(=O)C3CC3)CC2)c(Cl)c1OC` , hERG current change (%, negative = inhibition) at 10uM: -39.2
